Tested on: CAL-12T
test.summary: relative viability (nuclei count vs DMSO), 5 days (fraction); higher = more cells survive
cond: first compound 0.000632 µM
List of relative viability values.

{"compound": "CC(=O)O[C@@]12CO[C@@H]1C[C@H](O)[C@@]1(C)C(=O)[C@H](O)C3=C(C)[C@@H](OC(=O)[C@H](O)[C@@H](NC(=O)OC(C)(C)C)c4ccccc4)C[C@@](O)([C@@H](OC(=O)c4ccccc4)[C@H]21)C3(C)C [Docetaxel] + CCNC(=O)c1noc(-c2cc(C(C)C)c(O)cc2O)c1-c1ccc(CN2CCOCC2)cc1 [Luminespib] (partner 0.01 µM)", "relative viability": 0.252}
{"compound": "CC(=O)O[C@@]12CO[C@@H]1C[C@H](O)[C@@]1(C)C(=O)[C@H](O)C3=C(C)[C@@H](OC(=O)[C@H](O)[C@@H](NC(=O)OC(C)(C)C)c4ccccc4)C[C@@](O)([C@@H](OC(=O)c4ccccc4)[C@H]21)C3(C)C [Docetaxel] + Cc1nc(Nc2ncc(C(=O)Nc3c(C)cccc3Cl)s2)cc(N2CCN(CCO)CC2)n1 [Dasatinib] (partner 0.075 µM)", "relative viability": 0.192}
{"compound": "CC(=O)O[C@@]12CO[C@@H]1C[C@H](O)[C@@]1(C)C(=O)[C@H](O)C3=C(C)[C@@H](OC(=O)[C@H](O)[C@@H](NC(=O)OC(C)(C)C)c4ccccc4)C[C@@](O)([C@@H](OC(=O)c4ccccc4)[C@H]21)C3(C)C [Docetaxel] + COc1cccc2cc(-c3nc([C@H]4CC[C@H](C(=O)O)CC4)n4ncnc(N)c34)[nH]c12 [OSI-027] (partner 0.5 µM)", "relative viability": 0.272}
{"compound": "CC(=O)O[C@@]12CO[C@@H]1C[C@H](O)[C@@]1(C)C(=O)[C@H](O)C3=C(C)[C@@H](OC(=O)[C@H](O)[C@@H](NC(=O)OC(C)(C)C)c4ccccc4)C[C@@](O)([C@@H](OC(=O)c4ccccc4)[C@H]21)C3(C)C [Docetaxel] + N=C(N)NC(=N)NCCc1ccccc1 [Phenformin] (partner 250 µM)", "relative viability": 0.305}

---

Tested on: NCI-H2126
test.summary: relative viability (nuclei count vs DMSO), 5 days (fraction); higher = more cells survive
cond: first compound 500 µM

{"compound": "O=C(O)CCCCC(CCSCc1ccccc1)SCc1ccccc1 (centres undefined) [CPI-613] + O=C(CCCCCCC(=O)Nc1ccccc1)NO [Vorinostat] (partner 1 µM)", "relative viability": 0.179}
{"compound": "O=C(O)CCCCC(CCSCc1ccccc1)SCc1ccccc1 (centres undefined) [CPI-613] + Cc1nc(Nc2ncc(C(=O)Nc3c(C)cccc3Cl)s2)cc(N2CCN(CCO)CC2)n1 [Dasatinib] (partner 0.075 µM)", "relative viability": 0.107}
{"compound": "O=C(O)CCCCC(CCSCc1ccccc1)SCc1ccccc1 (centres undefined) [CPI-613] + C[C@]1(O)C[C@@H](c2nc(-c3ccc4ccc(-c5ccccc5)nc4c3)c3c(N)nccn32)C1 [Linsitinib] (partner 1 µM)", "relative viability": 0.567}
{"compound": "O=C(O)CCCCC(CCSCc1ccccc1)SCc1ccccc1 (centres undefined) [CPI-613] + CS(=O)(=O)CCNCc1ccc(-c2ccc3ncnc(Nc4ccc(OCc5cccc(F)c5)c(Cl)c4)c3c2)o1 [Lapatinib] (partner 2 µM)", "relative viability": 0.738}
